viability at 72 h, 25 µM values by entry
Experiment: MTT cytotoxicity assay
Format: cell-based, human
Conditions: human, HEK293T cells, OD450, cytotoxicity (Fig 2a), replicates
Residues, ends and D or L forms follow the SMILES beside them.
The figure you give is taken to be in %; do not add the unit.

Return reported viability at 72 h, 25 µM; argument: CC[C@H](C)[C@H](NC(=O)[C@H](CCCNC(=N)N)NC(=O)[C@H](CCCNC(=N)N)NC(=O)[C@H](CC(C)C)NC(=O)[C@H](Cc1ccccc1)NC(=O)[C@H](Cc1ccccc1)NC(=O)[C@H](Cc1ccccc1)NC(=O)[C@@H](N)Cc1ccccc1)C(=O)N[C@@H](Cc1ccccc1)C(N)=O [F-SHf(R^5)] (H-FFFFLRRIF-NH2; N-terminus assumed)
12.3
